assay: Cmax in human at 400 mg, po bid from day 11 to day 20 pretreated with placebo from day 1 to day 3 followed by washout from day 4 to day 10 followed by 400 mg, po of drug coadministered with placebo from day 21 to day 30; assay type: ADME, organism-based; set-up: dose 400 mg, route oral; conditions: in vivo
Metric: Cmax

Consider CC(C)c1nc(CN(C)C(=O)N[C@H](C(=O)N[C@@H](Cc2ccccc2)C[C@H](O)[C@H](Cc2ccccc2)NC(=O)OCc2cncs2)C(C)C)cs1 . Its measured Cmax is 10200 ng/mL

###

experiment: AUC (0 to 12 hrs) in human at 400 mg, po bid from day 11 to day 20 pretreated with placebo from day 1 to day 3 followed by washout from day 4 to day 10 followed by 400 mg, po of drug coadministered with placebo from day 21 to day 30; type: ADME, organism-based; design: dose 400 mg, time < 12 hr, route oral; settings: plasma
Metric: AUC at 12 h (µg·h/mL)
Expressed in µg·h/mL, but write only the number.

Consider CC(C)c1nc(CN(C)C(=O)N[C@H](C(=O)N[C@@H](Cc2ccccc2)C[C@H](O)[C@H](Cc2ccccc2)NC(=O)OCc2cncs2)C(C)C)cs1 . Its measured AUC at 12 h is 58.4

###

assay: Tmax in human at 400 mg, po bid on day 1 and 200 mg, po bid on day 2 and 3 followed by 7 days of washout period then treated with ritonavir 400 mg, po for 10 days followed by 200 mg, po of drug coadministered with 400 mg, po ritonavir till day 30; format: ADME, organism-based; conditions: in vivo
Metric: Tmax
Could you give the number and then its unit, please?

Consider C[C@@H](c1ncncc1F)[C@](O)(Cn1cncn1)c1ccc(F)cc1F . Its measured Tmax is 1 h

###

assay: Tmax in human at 100 mg, po bid from day 11 to day 20 pretreated with voriconazole 400 mg, po bid on day 1 and 200 mg, po bid on day 2 and 3 followed by washout from day 4 to day 10; format: ADME, organism-based; details: in vivo
Metric: Tmax

Consider CC(C)c1nc(CN(C)C(=O)N[C@H](C(=O)N[C@@H](Cc2ccccc2)C[C@H](O)[C@H](Cc2ccccc2)NC(=O)OCc2cncs2)C(C)C)cs1 . Its measured Tmax is 1 h

###

experiment: Cmax in human at 400 mg, po bid from day 11 to day 20 pretreated with voriconazole 400 mg, po bid on day 1 and 200 mg, po bid on day 2 and 3 followed by washout from day 4 to day 10; type: ADME, organism-based; parameters: dose 400 mg, route oral; conditions: in vivo
Metric: Cmax (ng/mL)
Expressed in ng/mL, but write only the number.

Consider CC(C)c1nc(CN(C)C(=O)N[C@H](C(=O)N[C@@H](Cc2ccccc2)C[C@H](O)[C@H](Cc2ccccc2)NC(=O)OCc2cncs2)C(C)C)cs1 [RITONAVIR] . Its measured Cmax is 10700

###

test: AUC (0 to 12 hrs) in human at 100 mg, po bid from day 11 to day 20 pretreated with voriconazole 400 mg, po bid on day 1 and 200 mg, po bid on day 2 and 3 followed by washout from day 4 to day 10; type: ADME, organism-based; parameters: dose 100 mg, time < 12 hr, route oral; details: plasma
Metric: AUC at 12 h (ng·h/mL)
Expressed in ng·h/mL, but write only the number.

Consider CC(C)c1nc(CN(C)C(=O)N[C@H](C(=O)N[C@@H](Cc2ccccc2)C[C@H](O)[C@H](Cc2ccccc2)NC(=O)OCc2cncs2)C(C)C)cs1 [RITONAVIR] . Its measured AUC at 12 h is 7810

###

assay: AUC (0 to 12 hrs) in human at 400 mg, po bid on day 1 and 200 mg, po bid on day 2 and 3 followed by 7 days of washout period then treated with ritonavir 100 mg, po for 10 days followed by 200 mg, po of drug coadministered with 100 mg, po ritonavir till day 30; type: ADME, organism-based; set-up: time < 12 hr, dose 400 mg, route oral; settings: plasma
Metric: AUC at 12 h (ng·h/mL)
Expressed in ng·h/mL, but write only the number.

Consider C[C@@H](c1ncncc1F)[C@](O)(Cn1cncn1)c1ccc(F)cc1F . Its measured AUC at 12 h is 19500
